- Test system: HCT116 human colorectal cancer cell line
- Experiment Notes: MTT cytotoxicity assay, HCT116
- Measurement Parameters: HCT-116, 72 h, read-out: IC50 (µM) (Mean ± SD) HCT116
Measured Attribute: IC50
Record the result as a number with its unit.

Previously resolved entries follow.
CC1SC(c2c(-c3ccccc3)nc3sccn23)N(c2ccc([N+](=O)[O-])cc2)C1=O (stereo not drawn) [Compound 4e]	89.9 µM
Cc1ccc(N2C(=O)CSC2c2c(-c3ccccc3)nc3sccn23)cc1 (stereo not drawn) [Compound 5c]	60 µM
COc1ccc(N2C(=O)CSC2c2c(-c3ccccc3)nc3sccn23)cc1 (stereo not drawn) [Compound 5d]	65.2 µM
Cc1ccc(N2C(=O)C(C)SC2c2c(-c3ccccc3)nc3sccn23)cc1 (stereo not drawn) [Compound 4f]	47.6 µM
O=C1CSC(c2c(-c3ccccc3)nc3sccn23)N1c1ccc(Cl)cc1 (stereo not drawn) [Compound 5a]	58.8 µM

# query: IC50 of entry O=C1CSC(c2c(-c3ccccc3)nc3sccn23)N1c1ccc(Br)cc1 (stereo not drawn) [Compound 5b]
58.6 µM

Provenance of the data: paper PMC11009276
